This listing pairs sequences with measured pull-down binding Z-score.
# Tested on: TO-N3-2 (biotin conjugate)
# ASSAY_METHOD_TEXT: pull-down binding Z-score (relative to library population); higher = stronger binding
# TEST_CONDITIONS: RNA library: Library-2
# respond with the number and nothing more

Observed pull-down binding Z-score on TO-N3-2 (biotin conjugate), entry AUGGAUAUGGGAACUGUGAUGUCCA [hsa-mir-4768] , equals 0.232

Measured pull-down binding Z-score for this entry GGAGAUUGGAGUGGCCAGUGUUCCUAAACAAUUC [hsa-mir-4263] on TO-N3-2 (biotin conjugate): 0.663

// sequence `GUAUCUGAAUUAC` , assay TO-N3-2 (biotin conjugate), pull-down binding Z-score value: -0.281

Field pull-down binding Z-score (TO-N3-2 (biotin conjugate)), entry UAUGCAAAGCUCUGACAGUGUUUCACUUGCUA [hsa-mir-7848] : -0.0647

Assay TO-N3-2 (biotin conjugate), sample GUUCUAAGUAUUGCUCCAAUAAUGUUCUCAAACAAAAUGGCGAGACUGGGAAAAGGGUAUAUGUUUGAGAGCAAGAGUAUGAAACUUAGAAC [IAV_invivo_PB1_2_Motif_18+IAV_invivo_PB1_2_Motif_18] , pull-down binding Z-score read: 1.25

Measured on TO-N3-2 (biotin conjugate), AGCUGGGUGGAGGCAGAGCU [hsa-mir-4291] has a documented pull-down binding Z-score of 1.4

Known value: TO-N3-2 (biotin conjugate) pull-down binding Z-score of the sequence AAGGCGGGUGGUGCUCAGAUCGCCU [hsa-mir-326] equals 0.779

Measured on TO-N3-2 (biotin conjugate), `GCCAUUUGUCAUGAUGGAAAAGCACACUUUCCUCGUGAAGGUGUCUUUGUUUCAAAUGGC` has a documented pull-down binding Z-score of -0.949

Let me check: `GUGCCAUCAAAUUGGAUGACAAAGAUCCAAAUUUCAAAGAUCAAGUCAUUUUGCUGAAUAAGCAUAUUGACGCAU` , system TO-N3-2 (biotin conjugate), measured pull-down binding Z-score is -0.159
